Target: T1, human LRRC33-proTGFβ1 complex (human, UniProt P01137 30-390; Q86YC3 19-650)
T1 construct: also called hLRRC33-proTGFβ1; hLRRC33
T1 sequence (P01137 30-390 limits assumed, chain 1 of 2): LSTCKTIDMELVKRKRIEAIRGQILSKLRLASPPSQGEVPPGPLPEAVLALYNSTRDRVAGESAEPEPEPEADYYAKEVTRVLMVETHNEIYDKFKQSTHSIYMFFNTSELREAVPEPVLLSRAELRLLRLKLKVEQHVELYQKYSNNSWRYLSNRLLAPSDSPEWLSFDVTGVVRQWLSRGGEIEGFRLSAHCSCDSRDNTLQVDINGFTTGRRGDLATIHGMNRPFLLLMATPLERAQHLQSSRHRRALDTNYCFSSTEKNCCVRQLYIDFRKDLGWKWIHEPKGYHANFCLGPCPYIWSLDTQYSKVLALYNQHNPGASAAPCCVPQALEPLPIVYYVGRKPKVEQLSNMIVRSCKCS
T1 sequence (Q86YC3 other isoform, or with tags, fused parts or gaps limits assumed, chain 2 of 2): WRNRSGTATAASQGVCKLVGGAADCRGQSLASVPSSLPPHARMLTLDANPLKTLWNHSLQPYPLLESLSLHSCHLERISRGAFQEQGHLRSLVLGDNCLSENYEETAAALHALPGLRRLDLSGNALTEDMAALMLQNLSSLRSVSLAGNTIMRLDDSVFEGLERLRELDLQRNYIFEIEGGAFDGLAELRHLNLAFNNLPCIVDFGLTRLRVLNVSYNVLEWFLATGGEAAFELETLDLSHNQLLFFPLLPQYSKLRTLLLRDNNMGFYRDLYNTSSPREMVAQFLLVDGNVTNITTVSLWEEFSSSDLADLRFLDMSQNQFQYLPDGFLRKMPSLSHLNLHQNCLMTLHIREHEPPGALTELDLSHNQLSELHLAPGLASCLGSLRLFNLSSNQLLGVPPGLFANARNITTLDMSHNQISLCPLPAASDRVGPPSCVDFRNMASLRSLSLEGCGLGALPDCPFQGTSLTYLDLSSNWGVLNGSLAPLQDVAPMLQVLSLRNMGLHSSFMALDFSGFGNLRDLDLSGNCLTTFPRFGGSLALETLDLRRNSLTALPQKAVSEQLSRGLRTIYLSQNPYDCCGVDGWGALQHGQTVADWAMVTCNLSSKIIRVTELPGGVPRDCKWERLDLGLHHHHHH
Assay: BLI (Octet)
readout kind: Kd (nM)
Give the value, in units of nM, as a plain number.

**Query** Which Kd value belongs to Ab11 (antibody, IgG4, V domains shown) VH: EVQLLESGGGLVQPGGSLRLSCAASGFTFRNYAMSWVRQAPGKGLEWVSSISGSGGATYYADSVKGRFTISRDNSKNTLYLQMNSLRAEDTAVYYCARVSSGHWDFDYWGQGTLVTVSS VL: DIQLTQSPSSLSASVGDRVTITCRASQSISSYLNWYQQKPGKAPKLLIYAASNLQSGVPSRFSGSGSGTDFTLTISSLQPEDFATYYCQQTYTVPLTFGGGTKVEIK ?
**Result** 0.555

**Query** Which Kd value belongs to Ab21 (antibody, V domains shown) VH: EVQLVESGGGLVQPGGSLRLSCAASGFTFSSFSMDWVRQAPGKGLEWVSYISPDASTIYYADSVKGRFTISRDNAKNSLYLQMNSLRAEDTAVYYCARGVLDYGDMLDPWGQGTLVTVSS VL: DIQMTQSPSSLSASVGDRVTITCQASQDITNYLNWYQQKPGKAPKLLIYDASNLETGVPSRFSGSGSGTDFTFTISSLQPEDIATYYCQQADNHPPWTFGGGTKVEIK ?
**Result** 0.455

**Query** Which Kd value belongs to Ab19 (antibody, IgG4, V domains shown) VH: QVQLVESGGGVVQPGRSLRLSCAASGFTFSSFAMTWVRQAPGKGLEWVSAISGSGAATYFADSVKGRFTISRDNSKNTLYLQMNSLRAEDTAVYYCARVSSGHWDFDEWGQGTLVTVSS VL: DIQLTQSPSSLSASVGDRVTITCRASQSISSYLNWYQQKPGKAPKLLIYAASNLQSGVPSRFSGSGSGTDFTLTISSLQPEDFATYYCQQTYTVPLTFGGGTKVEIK ?
**Result** 0.692

**Query** Which Kd value belongs to Ab32 (antibody, IgG4, V domains shown) VH: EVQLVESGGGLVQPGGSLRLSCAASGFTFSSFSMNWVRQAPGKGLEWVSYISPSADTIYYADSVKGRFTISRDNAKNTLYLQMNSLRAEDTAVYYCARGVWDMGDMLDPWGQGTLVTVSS VL: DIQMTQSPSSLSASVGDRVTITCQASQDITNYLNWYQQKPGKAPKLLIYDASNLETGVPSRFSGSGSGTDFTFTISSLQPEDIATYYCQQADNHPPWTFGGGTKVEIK ?
**Result** 0.698

**Query** Which Kd value belongs to Ab6 (antibody, V domains shown) VH: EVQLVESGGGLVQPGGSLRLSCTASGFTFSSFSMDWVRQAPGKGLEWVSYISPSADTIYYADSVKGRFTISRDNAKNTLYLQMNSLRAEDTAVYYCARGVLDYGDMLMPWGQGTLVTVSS VL: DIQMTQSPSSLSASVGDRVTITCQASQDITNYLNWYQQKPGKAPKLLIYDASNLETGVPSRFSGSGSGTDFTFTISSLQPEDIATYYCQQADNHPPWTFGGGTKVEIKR ?
**Result** 0.336

**Query** Which Kd value belongs to Ab13 (antibody, V domains shown) VH: EVQLLESGGGLVQPGGSLRLSCAASGFTFADYAMTWVRQAPGKGLEWVSAISSFASAIYYADSVKGRFTISRDNSKNTLYLQMNSLRAEDTAVYYCARVSSGHWDFDYWGQGTLVTVSS VL: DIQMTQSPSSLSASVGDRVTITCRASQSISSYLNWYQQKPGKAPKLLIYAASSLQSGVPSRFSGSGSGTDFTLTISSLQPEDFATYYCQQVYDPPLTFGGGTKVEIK ?
**Result** 1.4

**Query** Which Kd value belongs to Ab25 (antibody, V domains shown) VH: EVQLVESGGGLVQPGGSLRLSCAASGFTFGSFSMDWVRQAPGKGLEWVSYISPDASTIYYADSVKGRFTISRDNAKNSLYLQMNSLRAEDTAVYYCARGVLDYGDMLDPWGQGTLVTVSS VL: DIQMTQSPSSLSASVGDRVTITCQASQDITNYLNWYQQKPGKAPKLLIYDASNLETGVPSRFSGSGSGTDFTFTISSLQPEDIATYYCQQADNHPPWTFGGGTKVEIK ?
**Result** 0.409

**Query** Which Kd value belongs to Ab28 (antibody, V domains shown) VH: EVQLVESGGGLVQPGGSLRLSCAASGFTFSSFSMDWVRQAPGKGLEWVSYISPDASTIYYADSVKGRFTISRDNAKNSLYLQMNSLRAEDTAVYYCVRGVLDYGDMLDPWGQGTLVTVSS VL: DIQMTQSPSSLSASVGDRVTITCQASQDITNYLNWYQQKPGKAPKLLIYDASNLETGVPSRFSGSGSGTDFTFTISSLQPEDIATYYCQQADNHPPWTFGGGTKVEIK ?
**Result** 0.409

**Query** Which Kd value belongs to Ab17 (antibody, V domains shown) VH: EVQLLESGGGVVQPGGSLRLSCAASGFTFSSFAMTWVRQAPGKGLEWVSAISGSGAATYFADSVKGRFTISRDNSKNTLYLQMNSLRAEDTAVYYCARVSSGHWDFDYWGQGTLVTVSS VL: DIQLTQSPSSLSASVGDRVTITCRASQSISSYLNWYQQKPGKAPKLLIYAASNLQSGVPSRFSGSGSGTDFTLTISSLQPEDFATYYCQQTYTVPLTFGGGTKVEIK ?
**Result** 0.658

**Query** Which Kd value belongs to Ab31 (antibody, IgG4, V domains shown) VH: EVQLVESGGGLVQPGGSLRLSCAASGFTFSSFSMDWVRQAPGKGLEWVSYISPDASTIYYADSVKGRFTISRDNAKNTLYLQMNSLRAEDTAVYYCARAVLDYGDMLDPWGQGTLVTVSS VL: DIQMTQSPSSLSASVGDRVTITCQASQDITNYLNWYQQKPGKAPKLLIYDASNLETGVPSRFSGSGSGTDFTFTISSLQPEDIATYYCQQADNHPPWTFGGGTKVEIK ?
**Result** 0.41
